Molecular target: T1, ZFP SBS#619 (synthetic)
T1 chain: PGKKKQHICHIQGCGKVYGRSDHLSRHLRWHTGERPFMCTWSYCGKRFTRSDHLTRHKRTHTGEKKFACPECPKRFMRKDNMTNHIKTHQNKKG
Assay: EMSA
Details: tags: MBP fusion
reported_property: Kd (nM)

| binder | reported_property | unit | val |
| --- | --- | --- | --- |
| AAGGGGGGG (dsDNA) DNA 1: AAGGGGGGG DNA 2: CCCCCCCTT | Kd | nM | 1.34 |
